# maps each entry to its melting point

Take a look at these entries with their results.
c1cncc(-c2ccsc2)c1    75 to 77 °C
CC(=O)OC1CSC(Oc2cnc(-c3ccncc3)c(F)c2)C(OC(C)=O)C1OC(C)=O (stereo not given)    165 °C
O=[N+]([O-])c1ccc(C(Cl)=NNc2ccccc2)cc1    157 to 158 °C
O=C1C(c2c[nH]c3ccccc23)=C(c2c[nH]c3ccccc23)C(=O)N1Cc1ccccc1    > 290 °C

Now look at this one.
Exam item: So what's the measured melting point for this one? COc1c(Cl)ncnc1OCCc1ccc(Cl)cc1
Marked response: 70 to 71 °C

###

Measurement name: melting point

Worked set:
CCOCCOc1ccc(CCNC(=O)c2ccccc2CC(=O)OCC)cc1    108 °C
CCOC(=O)c1cnn(-c2cccc(Cl)c2)c1N    115 to 117 °C

Proceed to the following item.
Exam item: So what does the record say about melting point for Cc1ccc(C(=Cc2nnnn2C)c2ccc(C)cc2C)c(C)c1 ?
Marked response: 143 to 144 °C

Entry source: a melting point compilation (Tetko et al.; mined from patent text by program, amines drawn as free bases though some values may be those of a salt)
